GI50 values by entry
System: SF-268
ASSAY_OVERVIEW: NCI tumour cell line growth inhibition, 48 h
Calls of active or inactive are those of the source. Rule as the data show it: active = GI50 up to about 1.1 µM and inactive = higher.
QUANTITY: GI50

>>> print(df.to_string())
                                   molecule  tested_system               result
0  Cc1ccc(C2COc3cc(O)c(O)cc3C2)cc1 (stereo not given)         SF-268   13.2 µM (inactive)
1  C[C@]12CC[C@@H]3c4ccc(O)cc4CC[C@H]3[C@@H]1CC[C@@H]2OC(=O)CCC1CCCC1 [ESTRADIOL CYPIONATE]         SF-268   21.8 µM (inactive)
2       Cc1ccc(Cc2n[nH]c(=O)n2Nc2ccccc2)cc1         SF-268  > 100 µM (inactive)
3  CCOC(=O)c1[nH]c2c(OC)n[n+]([O-])cc2c1[N+](=O)[O-]         SF-268     32 µM (inactive)
4  COC(=O)CC1C(=O)OCc2c1cc1n(c2=O)Cc2c-1nc1ccccc1c2OC (stereo not given)         SF-268   19.3 µM (inactive)
